molecular target: ETA (rabbit renal artery vascular smooth muscle cells) (Oryctolagus cuniculus, UniProt A5A8K3); construct: rabbit renal artery vascular smooth muscle cells (ERBA-A); endogenous in cells; host or cells: cultured rabbit renal artery vascular smooth muscle cells (membranes); format: binding; details: [125I]-ET-1 40 pM, 2 hours at 37° C.; read-out: ERBA-A IC50 (converted)
measurement.type: IC50 (nM)
One number for each entry, in nM.

Below, 2 molecules whose answers are already recorded.
COc1cccc(Sc2c(C(=O)O)n(Cc3ccccc3)c3ccccc23)c1: 7300
O=C(O)c1c(Sc2ccccc2)c2ccccc2n1-c1ccc2c(c1)OCO2: 1900

Can you give me IC50 for all of these, one by one?
1. COc1cc2c(Sc3ccc4c(c3)OCO4)c(C(=O)O)n(Cc3ccc4c(c3)OCO4)c2cc1OC
2. COc1cccc(Sc2c(C(=O)O)n(Cc3ccc4c(c3)OCO4)c3ccccc23)c1
3. COc1cccc(Sc2c(C(=O)O)n(Cc3ccc4c(c3)OCO4)c3cc(OC)c(OC)cc23)c1

1: 631; 2: 500; 3: 30

Identify measured IC50 associated with "O=C(O)c1c(Sc2ccc3c(c2)OCO3)c2ccccc2n1Cc1ccc2c(c1)OCO2"
570

----------
Target: rabbit femoral artery (ETA) (Oryctolagus cuniculus, UniProt A5A8K3)
Construct: Femoral and pulmonary arteries were isolated, cleaned of connective tissue, and cut into 4-mm rings
Sequence (A5A8K3 21-427): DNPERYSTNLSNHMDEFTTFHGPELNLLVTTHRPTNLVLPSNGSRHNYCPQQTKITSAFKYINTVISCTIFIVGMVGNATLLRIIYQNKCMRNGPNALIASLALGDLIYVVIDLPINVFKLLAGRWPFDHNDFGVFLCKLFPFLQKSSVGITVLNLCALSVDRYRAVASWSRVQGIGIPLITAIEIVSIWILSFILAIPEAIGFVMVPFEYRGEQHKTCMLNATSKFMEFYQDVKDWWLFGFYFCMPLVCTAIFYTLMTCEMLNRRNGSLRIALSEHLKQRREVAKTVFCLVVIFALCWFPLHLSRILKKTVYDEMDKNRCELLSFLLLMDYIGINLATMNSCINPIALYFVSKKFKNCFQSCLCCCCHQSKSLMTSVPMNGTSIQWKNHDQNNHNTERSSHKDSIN
Assay: In vitro antagonism of ET-1 stimulated vasoconstriction (VERA-A) in the rabbit femoral artery (ETA)
measurement.type: IC50 (µM)
Numbers only, in µM.

Below, 2 compounds whose answers are already recorded.
COc1cc2c(Sc3cc(OC)c(OC)c(OC)c3)c(C(=O)O)n(Cc3ccc4c(c3)OCO4)c2cc1OC: 0.0316
COc1cccc(Sc2c(C(=O)O)n(Cc3ccc4c(c3)OCO4)c3cc(OC)c(OC)cc23)c1: 0.1

Can you give me IC50 for all of these, one by one?
1. COc1ccc(Sc2c(C(=O)O)n(Cc3ccc4c(c3)OCO4)c3cc4c(cc23)OCO4)cc1OC
2. COc1cc2c(Sc3ccc4c(c3)OCO4)c(C(=O)O)n(Cc3ccc4c(c3)OCO4)c2cc1OC

0.316
0.0501
